Molecular target: T1, human TIMP-1 (human, UniProt P01033 24-207)
T1 construct: Purified protein, coupled to the BIAcore chip or in solution in the protease assay
Assay: SPR (BIAcore), TIMP-1 coupled to chip, monovalent Fab
quantity.kind: Kd (nM)
Reply numerically in nM, unit not repeated.

Please review the entries below; each comes with its answer.
binder	quantity.kind	measure.unit	readout.value
MS-BW-44-6 (Fab, V domains shown, Fab; MS-BW-44 with modified HCDR1 and HCDR2 cassettes) VH: QVQLVESGGGLVQPGGSLRLSCAASGFTFNSYAMSWVRQAPGKGLEWVSVISGNGSNTYYADSVKGRFTISRDNSKNTLYLQMNSLRAEDTAVYYCARFLDIWGQGTLVTVSS VL: DIALTQPASVSGSPGQSITISCTGTSSDVGGYNYVSWYQQHPGKAPKLMIYDVSNRPSGVSNRFSGSKSGNTASLTISGLQAEDEADYYCQSYDFVRFMVFGGGTKLTVLG	Kd	nM	0.6
MS-BW-44-2 (Fab, V domains shown, Fab; MS-BW-44 with a modified HCDR2 cassette) VH: QVQLVESGGGLVQPGGSLRLSCAASGFTFSSYAMSWVRQAPGKGLEWVSGISGNGVLIFYADSVKGRFTISRDNSKNTLYLQMNSLRAEDTAVYYCARFLDIWGQGTLVTVSS VL: DIALTQPASVSGSPGQSITISCTGTSSDVGGYNYVSWYQQHPGKAPKLMIYDVSNRPSGVSNRFSGSKSGNTASLTISGLQAEDEADYYCQSYDFVRFMVFGGGTKLTVLG	Kd	nM	0.5
MS-BW-44-6-1 (Fab, V domains shown, Fab from LCDR3 optimization of MS-BW-44-6) VH: QVQLVESGGGLVQPGGSLRLSCAASGFTFNSYAMSWVRQAPGKGLEWVSVISGNGSNTYYADSVKGRFTISRDNSKNTLYLQMNSLRAEDTAVYYCARFLDIWGQGTLVTVSS VL: DIALTQPASVSGSPGQSITISCTGTSSDVGGYNYVSWYQQHPGKAPKLMIYDVSNRPSGVSNRFSGSKSGNTASLTISGLQAEDEADYYCQSYDFIRFMVFGGGTKLTVLG	Kd	nM	0.2
MS-BW-44-2-4 (Fab, V domains shown, Fab from HCDR3 optimization of MS-BW-44-2) VH: QVQLVESGGGLVQPGGSLRLSCAASGFTFSSYAMSWVRQAPGKGLEWVSGISGNGVLIFYADSVKGRFTISRDNSKNTLYLQMNSLRAEDTAVYYCARGLMDYWGQGTLVTVSS VL: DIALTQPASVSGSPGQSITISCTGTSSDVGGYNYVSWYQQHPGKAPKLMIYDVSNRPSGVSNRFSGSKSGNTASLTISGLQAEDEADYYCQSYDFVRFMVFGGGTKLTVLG	Kd	nM	0.2

Can you look up the measured Kd of MS-BW-44-2-16 (Fab, V domains shown, Fab) VH: QVQLVESGGGLVQPGGSLRLSCAASGFTFSSYAMSWVRQAPGKGLEWVSGISGNGVLIFYADSVKGRFTISRDNSKNTLYLQMNSLRAEDTAVYYCARWFDVWGQGTLVTVSS VL: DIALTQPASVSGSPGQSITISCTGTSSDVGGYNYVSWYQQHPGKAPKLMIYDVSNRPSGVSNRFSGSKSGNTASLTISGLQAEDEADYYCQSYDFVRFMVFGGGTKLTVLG for me?
0.5

Can you look up the measured Kd of MS-BW-44-2-15 (Fab, V domains shown, Fab) VH: QVQLVESGGGLVQPGGSLRLSCAASGFTFSSYAMSWVRQAPGKGLEWVSGISGNGVLIFYADSVKGRFTISRDNSKNTLYLQMNSLRAEDTAVYYCARWFDHWGQGTLVTVSS VL: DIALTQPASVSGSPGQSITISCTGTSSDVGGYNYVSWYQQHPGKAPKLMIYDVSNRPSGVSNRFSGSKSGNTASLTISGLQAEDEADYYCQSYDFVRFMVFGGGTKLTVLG for me?
0.3
